target: human NEP (Homo sapiens (Human)); assay: In vitro enzyme inhibition assay at human NEP (Assay 1); type: biochemical; conditions: reported as ranges
Sequence (P08473 whole entry): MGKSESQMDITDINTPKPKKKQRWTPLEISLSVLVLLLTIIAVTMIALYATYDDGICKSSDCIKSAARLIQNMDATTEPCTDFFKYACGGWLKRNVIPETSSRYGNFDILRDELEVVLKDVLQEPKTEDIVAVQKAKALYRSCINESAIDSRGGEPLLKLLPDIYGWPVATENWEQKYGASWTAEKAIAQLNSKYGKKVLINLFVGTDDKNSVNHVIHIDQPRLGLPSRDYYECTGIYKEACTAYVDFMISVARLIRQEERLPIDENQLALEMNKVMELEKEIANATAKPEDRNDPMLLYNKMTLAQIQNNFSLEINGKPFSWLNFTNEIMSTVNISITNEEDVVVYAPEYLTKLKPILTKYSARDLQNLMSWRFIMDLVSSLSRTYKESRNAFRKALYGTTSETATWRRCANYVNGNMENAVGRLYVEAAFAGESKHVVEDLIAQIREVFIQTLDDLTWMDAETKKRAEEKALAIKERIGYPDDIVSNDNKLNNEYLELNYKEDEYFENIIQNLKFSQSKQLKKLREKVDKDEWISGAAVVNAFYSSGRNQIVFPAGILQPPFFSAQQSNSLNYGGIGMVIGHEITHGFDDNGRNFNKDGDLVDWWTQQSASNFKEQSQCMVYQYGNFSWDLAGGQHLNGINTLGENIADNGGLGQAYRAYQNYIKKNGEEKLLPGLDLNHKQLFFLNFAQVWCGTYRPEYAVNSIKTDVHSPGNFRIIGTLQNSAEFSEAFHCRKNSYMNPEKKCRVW

>  <molecule>
CCOC(=O)C(=O)N[C@H](Cc1ccc(-c2cc(Cl)ccc2F)cc1)C[C@@H](O)C(=O)O [Example 5-14]

>  <pKi>
≥9

$$$$
>  <molecule>
O=C(O)C(=O)N[C@H](Cc1ccc(-c2cccc(Cl)c2)cc1Cl)C[C@@H](O)C(=O)O [Example 5-9]

>  <pKi>
≥9

$$$$
>  <molecule>
C[C@@](CO)(C[C@@H](Cc1ccc(-c2cc(Cl)ccc2F)cc1)NC(=O)C(=O)O)C(=O)O [Example 11-2]

>  <pKi>
≥9

$$$$
>  <molecule>
C[C@@](CO)(C[C@@H](Cc1ccc(-c2ccc(F)cc2)cc1)NC(=O)C(=O)O)C(=O)O [Example 11-3]

>  <pKi>
7.0-7.9

$$$$
